Target: MKNK1 (Homo sapiens, UniProt Q9BUB5, T385D)
Construct: GST (N); purchased Carna Biosciences 02-145; host or cells: insect cells (baculovirus expression system)
Sequence (Q9BUB5 1-424 isoform Q9BUB5-2 T344D): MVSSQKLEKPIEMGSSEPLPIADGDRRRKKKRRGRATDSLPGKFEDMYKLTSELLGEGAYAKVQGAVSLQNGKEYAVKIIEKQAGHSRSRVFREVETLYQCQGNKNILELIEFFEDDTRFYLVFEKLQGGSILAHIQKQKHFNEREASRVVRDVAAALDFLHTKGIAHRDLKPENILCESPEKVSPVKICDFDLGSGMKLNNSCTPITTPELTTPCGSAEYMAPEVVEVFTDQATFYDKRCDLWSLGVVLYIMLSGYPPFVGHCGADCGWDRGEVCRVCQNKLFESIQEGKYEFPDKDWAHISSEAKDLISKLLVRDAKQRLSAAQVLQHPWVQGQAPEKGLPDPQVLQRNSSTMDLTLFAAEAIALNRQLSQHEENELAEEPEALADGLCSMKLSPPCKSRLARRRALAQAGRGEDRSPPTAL
Experiment: MKNK1 kinase high ATP assay (TR-FRET-based)
Type: biochemical
Settings: Table 2c; 2 mM ATP, 15 min preincubation
Below, each entry is listed alongside its reported pIC50.
# log scale: pIC50 equals minus log10 of the concentration in mol/L

Request: Value wanted: pIC50 (MKNK1 (Homo sapiens, UniProt Q9BUB5, T385D)) of entry `COc1ccc2ncc(-c3cc4c(N5CCN[C@@H](C)C5)nccc4o3)n2n1`
Result: 7.88

====

Target: MKNK1 (Homo sapiens, UniProt Q9BUB5, T385D)
Construct: GST (N); purchased Carna Biosciences 02-145; host or cells: insect cells (baculovirus expression system)
Experiment: MKNK1 kinase high ATP assay (TR-FRET-based)
Format: biochemical
Settings: Table 2c; 2 mM ATP, 15 min preincubation
Procedure: MKNK1 Kinase High ATP Assay MKNK1-inhibitory activity at high ATP of compounds of the present invention after their preincubation with MKNK1 was quantified employing the TR-FRET-based MKNK1 high ATP assay as described in the following paragraphs. […]
MEASUREMENT_LABEL: pIC50
For clarity, pIC50 is expressed as the negative log10 of concentration in mol/L.

Consider the worked cases shown below.
* C[C@H](N)COc1ccc2ncc(-c3cc4c(N5CCO[C@H](C)C5)nccc4o3)n2n1 [III-117] | 7.40
* O=C1CC[C@H](COc2ccc3ncc(-c4cc5c(N6CCN(c7ccccc7)CC6)nccc5o4)n3n2)N1 [III-76] | 8.22
* CC1(C)CN(c2nccc3oc(-c4cnc5ccc(OCCCS(C)(=O)=O)nn45)cc23)CCN1 [III-131] | 8.15

Would you kindly look at the next entry?
Request: Consider the compound CC1(C)CN(c2nccc3oc(-c4cnc5ccc(OCCCS(C)(=O)=O)nn45)cc23)CCO1 [III-135] and give its measured pIC50.
Result: 7.89
